tested on: ESO26 (GEJ) cancer cell line; experiment: Combination with genotoxic agents, viability (Mixtures analysis); type: cell-based; conditions: single agent IC50 on which the mixtures were based
Please provide measured pIC50 for the entries that follow.
Friendly reminder that pIC50 comes from taking -log10 of the concentration in mol/L.

# input compound: CC(=O)O[C@H]1C(=O)[C@@]2(C)[C@H]([C@H](OC(=O)c3ccccc3)[C@]3(O)C[C@H](OC(=O)[C@H](O)[C@@H](NC(=O)c4ccccc4)c4ccccc4)C(C)=C1C3(C)C)[C@]1(OC(C)=O)CO[C@@H]1C[C@@H]2O [paclitaxel] ; wanted: its pIC50 8.52

# input compound: COc1cc([C@@H]2c3cc4c(cc3[C@@H](O[C@@H]3O[C@@H]5CO[C@@H](C)O[C@H]5[C@H](O)[C@H]3O)[C@H]3COC(=O)[C@H]23)OCO4)cc(OC)c1O [etoposide] ; wanted: its pIC50 6.22

# input compound: N.N.[Cl][Pt][Cl] [cisplatin] ; wanted: its pIC50 5.82

These entries and their values trace back to patent US10039761B2.
